- system_tested: human HPK1 protein (Homo sapiens, UniProt Q92918)
- Construct: recombinant human HPK1 protein (a.a. 1-346) was expressed in Sf9 insect cells; GST (N); purchased Signalchem M23-11G; host or cells: Sf9 insect cells (baculovirus)
- Sequence (Q92918 1-346): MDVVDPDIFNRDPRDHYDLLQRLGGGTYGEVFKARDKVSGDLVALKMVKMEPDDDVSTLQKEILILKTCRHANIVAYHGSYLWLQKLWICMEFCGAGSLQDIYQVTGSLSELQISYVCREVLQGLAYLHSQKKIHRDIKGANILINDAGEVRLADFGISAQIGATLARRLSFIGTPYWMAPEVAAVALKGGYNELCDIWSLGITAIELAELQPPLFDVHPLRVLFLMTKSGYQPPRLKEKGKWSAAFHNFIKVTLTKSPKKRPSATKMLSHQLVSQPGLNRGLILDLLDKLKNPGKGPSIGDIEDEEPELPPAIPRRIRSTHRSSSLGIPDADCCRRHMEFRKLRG
- assay_comment: Human HPK1 protein TR-FRET assay
- Type: biochemical
- applied_conditions: 1 mM ATP, Table 20
quantity_measured: IC50

{"compound": "C[C@H]1CN(C(=O)Nc2ccc(CN3CCN(C)CC3)c(C(F)(F)F)c2)Cc2cc(Oc3ccnc4[nH]c(C5CC5)cc34)cnc21 [XIV-81]", "meas_value": "< 500 nM"}
{"compound": "CC[C@H]1CN(C(=O)Nc2ccc(CN3CCN(C)CC3)c(C(F)(F)F)c2)Cc2cc(Oc3ccnc4[nH]c(-c5noc(=O)[nH]5)cc34)cnc21 [XIV-132]", "meas_value": "< 500 nM"}
{"compound": "C[C@H]1CN(C(=O)Nc2ccc(CN3CCN(C)CC3)c(C(F)(F)F)c2)Cc2cc(Oc3c(F)cnc4[nH]c(CO)cc34)ccc21 [XV-38]", "meas_value": "< 500 nM"}
{"compound": "CCC1CN(C(=O)Nc2ccc(CN3CCN(CC)CC3)c(C(F)(F)F)c2)Cc2cc(Oc3ccnc4[nH]c(-c5cnn(C)c5)cc34)cnc21 (centres unmarked) [XIV-54]", "meas_value": "< 500 nM"}
{"compound": "CCC1CN(C(=O)Nc2ccc(CN3CCN(CC)CC3)c(C(F)(F)F)c2)Cc2cc(Oc3ccnc4[nH]c(C(C)O)cc34)cnc21 (centres unmarked) [XIV-40]", "meas_value": "< 500 nM"}
{"compound": "CC[C@@H]1CN(C(=O)Nc2ccc(CN3CCN(CCO)CC3)c(C(F)F)c2)Cc2cc(Oc3ccnc4[nH]c(CO)cc34)ccc21 [XV-7]", "meas_value": "< 500 nM"}
{"compound": "CCN1CCN(Cc2ccc(NC(=O)N3CCc4ncc(Oc5ncnc6[nH]c(C)cc56)cc4[C@H]3C)cc2C(F)(F)F)CC1 [XI-8]", "meas_value": "5000 to 10000 nM"}
{"compound": "C[C@@H]1Cc2ccc(Oc3ccnc4[nH]c(C(=O)N(C)C)cc34)cc2CN1C(=O)Nc1cnc(OC2CCN(C)CC2)c(C(F)(F)F)c1 [XVI-7]", "meas_value": "< 500 nM"}
{"compound": "C[C@@H]1Cc2ccc(Oc3ccnc4[nH]c(C5(O)CC5)cc34)cc2CN1C(=O)Nc1ccc(CN2CCN(C)CC2)c(C(F)(F)F)c1 [XVI-2]", "meas_value": "< 500 nM"}
{"compound": "CN1CCN(Cc2ccc(NC(=O)N3CCc4ccc(Oc5ccnc6[nH]c(C7(O)CC7)cc56)cc4C3)cc2C(F)(F)F)CC1 [XVIII-10]", "meas_value": "< 500 nM"}
{"compound": "CC[C@H]1CN(C(=O)Nc2ccc(CN3CCNCC3)c(C(F)(F)F)c2)Cc2cc(Oc3ccnc4[nH]c(-c5noc(C)n5)cc34)cnc21 [XIV-136]", "meas_value": "< 500 nM"}
{"compound": "CC[C@@H]1CN(C(=O)Nc2ccc(CN3CCN(CC)CC3)c(C(F)(F)F)c2)Cc2cc(Oc3ccnc4[nH]c(C5(O)CC5)cc34)cnc21 [XIV-76]", "meas_value": "< 500 nM"}
{"compound": "C[C@H]1CN(C(=O)Nc2ccc(CN3CCN(C)CC3)c(C(F)(F)F)c2)Cc2cc(Oc3ccnc4[nH]c(C5(O)COC5)cc34)ccc21 [XV-32]", "meas_value": "< 500 nM"}
{"compound": "Cc1cc2c(Oc3cnc4c(c3)CN(C(=O)Nc3ccc(CN5CCN(C)CC5)c(C(F)(F)F)c3)C[C@H]4C)ccnc2[nH]1 [XIV-91]", "meas_value": "< 500 nM"}
{"compound": "CCC1CN(C(=O)Nc2ccc(CN3CCN(CC)CC3)c(C(F)(F)F)c2)Cc2cc(Oc3cc(NC(=O)c4cnn(C)c4)ncc3F)cnc21 (centres unmarked) [XIV-92]", "meas_value": "< 500 nM"}
{"compound": "CC[C@H]1CN(C(=O)Nc2ccc(CN3CCN(CC)CC3)c(C(F)(F)F)c2)Cc2cc(Oc3ccnc4[nH]c(CCOC)cc34)cnc21 [XIV-22]", "meas_value": "< 500 nM"}
{"compound": "C[C@H]1c2cc(Oc3ccnc4[nH]c(CO)cc34)ccc2CCN1C(=O)Nc1ccc(CN2CCN(CCO)CC2)c(C(F)F)c1 [XIII-12]", "meas_value": "< 500 nM"}
{"compound": "CN1CCN(Cc2ncc(NC(=O)N3CCc4ccc(Oc5c(F)cnc6[nH]c(-c7cccnc7)cc56)cc4C3)cc2C(F)(F)F)CC1 [XII-6]", "meas_value": "< 500 nM"}
{"compound": "CCC1CN(C(=O)Nc2ccc(CN3CCN(CC)CC3)c(C(F)(F)F)c2)Cc2cc(Oc3ncnc4[nH]c(C)cc34)cnc21 (centres unmarked) [XIV-4]", "meas_value": "< 500 nM"}
{"compound": "CCN1CCN(Cc2ccc(NC(=O)N3CCc4ccc(-c5ccc6cc(NC)ncc6c5)cc4C3)cc2C(F)(F)F)CC1 [XI-1]", "meas_value": "500 to 5000 nM"}
{"compound": "Cn1cc(-c2cc3c(Oc4ccc5c(c4)CN(C(=O)Nc4ccc(CN6CCN(CCO)CC6)c(C(F)(F)F)c4)CC5)c(F)cnc3[nH]2)cn1 [XII-14]", "meas_value": "< 500 nM"}
{"compound": "CCN1CCN(Cc2ccc(NC(=O)C3CCc4ncc(Oc5ccnc6[nH]ccc56)cc4C3)cc2C(F)(F)F)CC1 (centres unmarked) [compound 24]", "meas_value": "< 500 nM"}
{"compound": "CCN1CCN(Cc2ccc(NC(=O)N3Cc4cc(Oc5c(F)cnc6[nH]c(CO)cc56)cnc4[C@@H](C)C3)cc2C(F)(F)F)CC1 [XIV-95]", "meas_value": "< 500 nM"}
{"compound": "CCC1CN(C(=O)Nc2ccc(CN3CCN(CC)CC3)c(C(F)(F)F)c2)Cc2cc(Nc3c(F)cnc4[nH]c(-c5cnn(C)c5)cc34)cnc21 (centres unmarked) [XVII-1]", "meas_value": "< 500 nM"}
{"compound": "CCN1CCN(Cc2ccc(NC(=O)N3CCc4c(cc(F)cc4Oc4ncnn5cccc45)C3)cc2C(F)(F)F)CC1 [XI-2]", "meas_value": "500 to 5000 nM"}
{"compound": "CCN1CCN(Cc2ccc(NC(=O)N3CCc4ccc(Oc5cc(NC(=O)C6CC6)ncc5F)cc4[C@@H]3C)cc2C(F)(F)F)CC1 [XIII-15]", "meas_value": "< 500 nM"}

Value source: patent US20210139484A1
